Catalogue of sequences with associated percentage of EdU-negative
# Test system: MCF7;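 note: secreted proteins added to cultured cells, EdU pulse at the end, nuclei found by Hoechst imaging, EdU status from nuclear versus surrounding ring intensity ratio, PBS as neutral control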
# procedure.text: percentage of EdU-negative (G0-arrested) nuclei per well, 72 h; higher = more G0 arrest
# applied.conditions: protein concentration 0.0225 µM; reference: sequence is the full UniProt precursor, the tested protein was the secreted form or ectodomain
observed.property: percentage of EdU-negative (%)

sequence_string="MVSALRGAPLIRVHSSPVSSPSVSGPRRLVSCLSSQSSALSQSGGGSTSAAGIEARSRALRRRWCPAGIMLLALVCLLSCLLPSSEAKLYGRCELARVLHDFGLDGYRGYSLADWVCLAYFTSGFNAAALDYEADGSTNNGIFQINSRRWCSNLTPNVPNVCRMYCSDLLNPNLKDTVICAMKITQEPQGLGYWEAWRHHCQGKDLTEWVDGCDF [Q8IXA5]" test_value=23.7
sequence_string=MAQLCGLRRSRAFLALLGSLLLSGVLAADRERSIHDFCLVSKVVGRCRASMPRWWYNVTDGSCQLFVYGGCDGNSNNYLTKEECLKKCATVTENATGDLATSRNAADSSVPSAPRRQDSEDHSSDMFNYEEYCTANAVTGPCRASFPRWYFDVERNSCNNFIYGGCRGNKNSYRSEEACMLRCFRQQENPPLPLGSKVVVLAGLFVMVLILFLGASMVYLIRVARRNQERALRTVWSSGDDKEQLVKNTYVL test_value=24.2
sequence_string="MKPLLVVFVFLFLWDPVLAGINSLSSEMHKKCYKNGICRLECYESEMLVAYCMFQLECCVKGNPAP [Q4QY38]" test_value=26.3
sequence_string=MTGLCGYSAPDMRGLRLIMIPVELLLCYLLLHPVDATSYGKQTNVLMHFPLSLESQTPSSDPLSCQFLHPKSLPGFSHMAPLPKFLVSLALRNALEEAGCQADVWALQLQLYRQGGVNATQVLIQHLRGLQKGRSTERNVSVEALASALQLLAREQQSTGRVGRSLPTEDCENEKEQAVHNVVQLLPGVGTFYNLGTALYYATQNCLGKARERGRDGAIDLGYDLLMTMAGMSGGPMGLAISAALKPALRSGVQQLIQYYQDQKDANISQPETTKEGLRAISDVSDLEETTTLASFISEVVSSAPYWGWAIIKSYDLDPGAGSLEI test_value=26.5
sequence_string=MKVSVAALSCLMLVTALGSQARVTKDAETEFMMSKLPLENPVLLDRFHATSADCCISYTPRSIPCSLLESYFETNSECSKPGVIFLTKKGRRFCANPSDKQVQVCMRMLKLDTRIKTRKN test_value=22.9
sequence_string=MLGVLELLLLGAAWLAGPARGQNETEPIVLEGKCLVVCDSNPTSDPTGTALGISVRSGSAKVAFSAIRSTNHEPSEMSNRTMIIYFDQVLVNIGNNFDSERSTFIAPRKGIYSFNFHVVKVYNRQTIQVSLMLNGWPVISAFAGDQDVTREAASNGVLIQMEKGDRAYLKLERGNLMGGWKYSTFSGFLVFPL test_value=24.7
sequence_string="MKFTTLLFLAAVAGALVYAEDASSDSTGADPAQEAGTSKPNEEISGPAEPASPPETTTTAQETSAAAVQGTAKVTSSRQELNPLKSIVEKSILLTEQALAKAGKGMHGGVPGGKQFIENGSEFAQKLLKKFSLLKPWA [Q9GZZ8]" test_value=25.6
sequence_string=MKLKLKNVFLAYFLVSIAGLLYALVQLGQPCDCLPPLRAAAEQLRQKDLRISQLQAELRRPPPAPAQPPEPEALPTIYVVTPTYARLVQKAELVRLSQTLSLVPRLHWLLVEDAEGPTPLVSGLLAASGLLFTHLVVLTPKAQRLREGEPGWVHPRGVEQRNKALDWLRGRGGAVGGEKDPPPPGTQGVVYFADDDNTYSRELFEEMRWTRGVSVWPVGLVGGLRFEGPQVQDGRVVGFHTAWEPSRPFPVDMAGFAVALPLLLDKPNAQFDSTAPRGHLESSLLSHLVDPKDLEPRAANCTRVLVWHTRTEKPKMKQEEQLQRQGRGSDPAIEV test_value=24
sequence_string=MGPLINRCKKILLPTTVPPATMRIWLLGGLLPFLLLLSGLQRPTEGSEVAIKIDFDFAPGSFDDQYQGCSKQVMEKLTQGDYFTKDIEAQKNYFRMWQKAHLAWLNQGKVLPQNMTTTHAVAILFYTLNSNVHSDFTRAMASVARTPQQYERSFHFKYLHYYLTSAIQLLRKDSIMENGTLCYEVHYRTKDVHFNAYTGATIRFGQFLSTSLLKEEAQEFGNQTLFTIFTCLGAPVQYFSLKKEVLIPPYELFKVINMSYHPRGDWLQLRSTGNLSTYNCQLLKASSKKCIPDPIAIASLSFLTSVIIFSKSRV test_value=23.9
sequence_string=MPRCRWLSLILLTIPLALVARKDPKKNETGVLRKLKPVNASNANVKQCLWFAMQEYNKESEDKYVFLVVKTLQAQLQVTNLLEYLIDVEIARSDCRKPLSTNEICAIQENSKLKRKLSCSFLVGALPWNGEFTVMEKKCEDA test_value=27.2
sequence_string=MLLLVTSLLLCELPHPAFLLIPEKSDLRTVAPASSLNVRFDSRTMNLSWDCQENTTFSKCFLTDKKNRVVEPRLSNNECSCTFREICLHEGVTFEVHVNTSQRGFQQKLLYPNSGREGTAAQNFSCFIYNADLMNCTWARGPTAPRDVQYFLYIRNSKRRREIRCPYYIQDSGTHVGCHLDNLSGLTSRNYFLVNGTSREIGIQFFDSLLDTKKIERFNPPSNVTVRCNTTHCLVRWKQPRTYQKLSYLDFQYQLDVHRKNTQPGTENLLINVSGDLENRYNFPSSEPRAKHSVKIRAADVRILNWSSWSEAIEFGSDDGNLGSVYIYVLLIVGTLVCGIVLGFLFKRFLRIQRLFPPVPQIKDKLNDNHEVEDEIIWEEFTPEEGKGYREEVLTVKEIT test_value=23.5
sequence_string="MAILMLSLQLILLLIPSISHEAHKTSLSSWKHDQDWANVSNMTFSNGKLRVKGIYYRNADICSRHRVTSAGLTLQDLQLWCNLRSVARGQIPSTL [Q6UY13]" test_value=26.9
sequence_string="MAALSRALGPLRTPAPPLWIGLFLVATGSQQSLAQPLPGNTTEATPRSLRASGSLCGPHAKAPYLCEATHEPAAARIRAQVPDTRWSRVGGQRFYSRVLSPLHRGPSGHTEASAQRSHMGKLKEPQPQDHKPGLGAS [Q6UXU0]" test_value=27.9
